- ASSAY_EXPLANATION: ATG_FoxO_CIS: Attagene CIS-FACTORIAL HepG2 Assay for human Forkhead box O (FoxO) (AID 2282943)
- MEASUREMENT_CONTEXT: HepG2 Attagene cis-reporter, FoxO element, mRNA; actives raise or lower the signal
Calls of active or inactive are those of the source. How the source made its calls: active means hit-call score of the fitted dose curve at least 0.9, where 1 is the maximum; inactive means score below 0.9.
Outcome codes: active, inactive

{"COMPOUND": "CC1=C(CC(=O)O)c2cc(F)ccc2/C1=C\\c1ccc(S(C)=O)cc1 (configuration not stated)", "CATEGORY": "inactive"}
{"COMPOUND": "Cc1cc(O)cc(C)c1Cl", "CATEGORY": "inactive"}
{"COMPOUND": "CCOC(=O)c1ccccc1", "CATEGORY": "inactive"}
{"COMPOUND": "CCCC[N+]1(C)CCCC1", "CATEGORY": "inactive"}
{"COMPOUND": "Oc1ccc(Cl)cc1C1CCCC1", "CATEGORY": "active"}
{"COMPOUND": "O=[N+]([O-])c1ccc2nc[nH]c2c1", "CATEGORY": "inactive"}
{"COMPOUND": "CO[Si](CCCNCCN)(OC)OC", "CATEGORY": "inactive"}
{"COMPOUND": "COc1c2occc2cc2ccc(=O)oc12", "CATEGORY": "inactive"}
{"COMPOUND": "O=S(=O)(O)c1cccc2ccccc12", "CATEGORY": "inactive"}
{"COMPOUND": "C=CC(C)(CCC=C(C)C)OC(=O)c1ccccc1 (configuration not stated)", "CATEGORY": "inactive"}
{"COMPOUND": "COc1ccc2ccccc2c1", "CATEGORY": "inactive"}
{"COMPOUND": "O=C(OCc1ccccc1)c1ccccc1", "CATEGORY": "inactive"}
{"COMPOUND": "NC(N)=Nc1nc(CSCCC(N)=NS(N)(=O)=O)cs1", "CATEGORY": "inactive"}
{"COMPOUND": "O=C(O)c1cc(Cl)cc(Cl)c1O", "CATEGORY": "inactive"}
{"COMPOUND": "C=CN1CCCCCC1=O", "CATEGORY": "inactive"}
{"COMPOUND": "COc1cccc(OC)c1C(=O)O", "CATEGORY": "inactive"}
{"COMPOUND": "O=C(O)Cc1c[nH]c2ccccc12", "CATEGORY": "inactive"}
{"COMPOUND": "C=CCOC(=O)C(=C)C", "CATEGORY": "inactive"}
{"COMPOUND": "CC1=CCCC(C)(C)C12CCC(C)O2 (configuration not stated)", "CATEGORY": "inactive"}
{"COMPOUND": "O=C(Oc1ccccc1)c1ccccc1", "CATEGORY": "inactive"}
{"COMPOUND": "CCOC(=O)CC(=O)OCC", "CATEGORY": "inactive"}
{"COMPOUND": "CCCCn1cc[n+](C)c1", "CATEGORY": "inactive"}
{"COMPOUND": "CC/C=C\\CC/C=C/C(OCC)OCC", "CATEGORY": "inactive"}
{"COMPOUND": "C=C(C)C(=O)OCCCCCC", "CATEGORY": "inactive"}
{"COMPOUND": "CCCCCCCC#N", "CATEGORY": "inactive"}
{"COMPOUND": "CC/C=C\\CCCCCO", "CATEGORY": "inactive"}
{"COMPOUND": "CC(=O)OC(C)(C)Cc1ccccc1", "CATEGORY": "inactive"}
{"COMPOUND": "COC(=O)c1ccccc1", "CATEGORY": "inactive"}
{"COMPOUND": "Cc1cc(-n2nc3ccc(Cl)cc3n2)c(O)c(C(C)(C)C)c1", "CATEGORY": "inactive"}
{"COMPOUND": "Cc1ccccc1S(=O)(=O)O", "CATEGORY": "inactive"}
{"COMPOUND": "CC[N+](CC)(CC(=O)Nc1c(C)cccc1C)Cc1ccccc1 (tested in a mixture with another compound)", "CATEGORY": "inactive"}
{"COMPOUND": "CC(C)CC(=O)O", "CATEGORY": "inactive"}

====

- ASSAY_EXPLANATION: CCTE_Simmons_CellTiterGLO_HEK293T: Viability Assessment in CCTE's Assays for Thyroperoxidase (TPO) Inhibition, Simmons Lab (AID 2283665);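 further: cells exposed to compound for 24 h before readout; actives reduce ATP signal below DMSO vehicle meaning cytotoxicity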
Inconclusive results are not listed. Calls of active or inactive are those of the source. Rule for the calls: active = hit-call score of the fitted dose curve at least 0.9, where 1 is the maximum; inconclusive = response in the unintended direction; inactive = score below 0.9.

{"STRUCTURE_NOTATION": "Cc1cc(C)c(S(=O)(=O)O)cc1N=Nc1cc(S(=O)(=O)O)c2ccccc2c1O", "AC50": "13.1 µM (active)"}
{"STRUCTURE_NOTATION": "CN(C)c1ccc(C(c2ccccc2)c2ccc(N(C)C)cc2)cc1", "AC50": "25.3 µM (active)"}
{"STRUCTURE_NOTATION": "CCN(CC)CCNC(=O)c1c(C)[nH]c(/C=C2\\C(=O)Nc3ccc(F)cc32)c1C", "AC50": "12.8 µM (active)"}

====

- ASSAY_EXPLANATION: TOX21_p53_BLA_p3_viability: Viability Assessment in the Tox21 HCT-116 p53 Agonism Beta-lactamase Assay, Phase 3 (AID 2283593);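 further: cells exposed to compound for 16 h before reading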
Inconclusive results are not listed. Activity calls are given as the source filed them. Rule for the calls: active = hit-call score of the fitted dose curve at least 0.9, where 1 is the maximum; inconclusive = response in the unintended direction; inactive = score below 0.9.
Possible outcomes: 1 for active, 0 for inactive

{"COMPOUND": "COC(C)(OC)OC", "CATEGORY": 0}
{"COMPOUND": "CCOC(=O)Cn1cccc1-c1nc(-c2ccc(OC)cc2)c(-c2ccc(OC)cc2)s1", "CATEGORY": 0}
{"COMPOUND": "O=c1[nH]c(=O)n([C@H]2C[C@H](O)[C@@H](CO)O2)cc1F", "CATEGORY": 1}
{"COMPOUND": "O=P(O)(O)OC(CO)CO", "CATEGORY": 0}
{"COMPOUND": "C=C[C@]1(C)C[C@@H](OC(=O)CSCCN(CC)CC)[C@]2(C)[C@H](C)CC[C@]3(CCC(=O)[C@H]32)[C@@H](C)[C@@H]1O", "CATEGORY": 0}
{"COMPOUND": "Cc1cc(-n2nc3ccc(Cl)cc3n2)c(O)c(C(C)(C)C)c1", "CATEGORY": 0}
{"COMPOUND": "Cc1cc(O)c(C(C)C)cc1Cl", "CATEGORY": 0}
{"COMPOUND": "C[C@H](CCC(=O)O)[C@H]1CC[C@H]2[C@@H]3[C@H](O)C[C@@H]4C[C@H](O)CC[C@]4(C)[C@H]3CC[C@]12C", "CATEGORY": 0}
{"COMPOUND": "O=C1c2ccccc2Cc2ccccc21", "CATEGORY": 0}
{"COMPOUND": "CC(=O)N(CC(O)CN(C(C)=O)c1c(I)c(C(=O)NCC(O)CO)c(I)c(C(=O)NCC(O)CO)c1I)c1c(I)c(C(=O)NCC(O)CO)c(I)c(C(=O)NCC(O)CO)c1I (stereo not given)", "CATEGORY": 0}
{"COMPOUND": "CC(C)CN(C[C@@H](OP(=O)(O)O)[C@H](Cc1ccccc1)NC(=O)O[C@H]1CCOC1)S(=O)(=O)c1ccc(N)cc1", "CATEGORY": 0}
{"COMPOUND": "COc1cc(-c2ccc(-[n+]3nc(-c4ccccc4)nn3-c3ccc([N+](=O)[O-])cc3)c(OC)c2)ccc1-[n+]1nc(-c2ccccc2)nn1-c1ccc([N+](=O)[O-])cc1", "CATEGORY": 1}
{"COMPOUND": "OC[C@H]1O[C@H](O[C@H]2O[C@H](CO)[C@@H](O)[C@H](O)[C@H]2O)[C@H](O)[C@@H](O)[C@@H]1O", "CATEGORY": 0}
{"COMPOUND": "O=C(O)c1cc(Cl)cc(Cl)c1O", "CATEGORY": 0}
{"COMPOUND": "[O]=[Zr]", "CATEGORY": 0}
{"COMPOUND": "CCN1CCN(c2cc3c(cc2F)c(=O)c(C(=O)O)cn3C2CC2)CC1", "CATEGORY": 0}
{"COMPOUND": "C#C[C@]1(OC(C)=O)CC[C@H]2[C@@H]3CCC4=CC(=O)CC[C@@H]4[C@H]3CC[C@@]21C", "CATEGORY": 0}
{"COMPOUND": "CCCCC(=O)OCC(=O)[C@H]1[C@H](C)C[C@H]2[C@@H]3C[C@H](F)C4=CC(=O)C=C[C@]4(C)[C@@]3(F)[C@@H](O)C[C@@]21C", "CATEGORY": 0}
{"COMPOUND": "CCCCCCCCCCCCCCCC(=O)OCC(COC(=O)CCCCCCCCCCCCCCC)OC(=O)CCCCCCCCCCCCCCC", "CATEGORY": 0}
{"COMPOUND": "Cc1cc(-c2ccccc2)nnc1NCCN1CCOCC1", "CATEGORY": 0}
{"COMPOUND": "Cc1ccc2c(c1[N+](=O)[O-])C(=O)c1ccccc1C2=O", "CATEGORY": 0}
{"COMPOUND": "C[Si](C)(C)C", "CATEGORY": 0}
{"COMPOUND": "CCCCCCCCCCCCC(=O)O", "CATEGORY": 0}
{"COMPOUND": "CCCCCCCC/C=C/CCCOC(C)=O", "CATEGORY": 0}
{"COMPOUND": "Cc1ccc(O)c2ncccc12", "CATEGORY": 0}
{"COMPOUND": "CN(C(=O)CO)c1c(I)c(C(=O)NCC(O)CO)c(I)c(C(=O)NCC(O)CO)c1I (stereo not given)", "CATEGORY": 0}
{"COMPOUND": "CNCCCCOc1ccccc1Cc1ccccc1", "CATEGORY": 0}
{"COMPOUND": "C=C(C)C(=O)OCCCC", "CATEGORY": 0}
{"COMPOUND": "C[C@@H]1C[C@H]2[C@@H]3C[C@H](F)C4=CC(=O)C(Cl)=C[C@]4(C)[C@@]3(F)[C@@H](O)C[C@]2(C)[C@@]1(O)C(=O)CO", "CATEGORY": 0}
{"COMPOUND": "O=C(Nc1ccc(/C=C/c2ccc(NC(=O)c3cc(S(=O)(=O)O)c4cccnc4c3O)cc2S(=O)(=O)O)c(S(=O)(=O)O)c1)c1cc(S(=O)(=O)O)c2cccnc2c1O", "CATEGORY": 0}
{"COMPOUND": "O=C(Cl)c1ccc(F)c(Cl)c1", "CATEGORY": 0}
{"COMPOUND": "OC1(c2ccc(Cl)c(C(F)(F)F)c2)CCN(CCCC(c2ccc(F)cc2)c2ccc(F)cc2)CC1", "CATEGORY": 1}
{"COMPOUND": "COC(=O)CCc1ccc(OCC(O)CNC(C)C)cc1 (stereo not given)", "CATEGORY": 0}
{"COMPOUND": "Cc1cc(O)cc2c1O[C@](C)(CCC[C@H](C)CCC[C@H](C)CCCC(C)C)CC2", "CATEGORY": 0}
{"COMPOUND": "CCCC(c1cc(C(C)(C)C)c(O)cc1C)c1cc(C(C)(C)C)c(O)cc1C", "CATEGORY": 1}
